Each recorded value in this set is attributed to ChEMBL document CHEMBL1201862.

Tested on: DU-145
experiment_summary: NCI tumour cell line growth inhibition, 48 h
Calls of active or inactive are those of the source. No stated cut-off is given here; in the data, active = GI50 up to about 1.1 µM and inactive = higher.
Listed below: GI50 values for each entry.
readout_name: GI50

1) Cc1cc(NCCCCCCCCCC[n+]2c(C)cc(N)c3ccccc32)c2ccccc2n1 = 2490 nM (inactive)
2) Nc1nc(Cl)c(Cl)c(NCC2(O)CCC2)n1 = > 100000 nM (inactive)
3) CCN(CC)CCCNc1c2cc(OC)ccc2nc2cccc([N+](=O)[O-])c12 = 55.1 nM (active)
4) Cn1c2ccccc2c(=S)c2ccccc21 = > 100000 nM (inactive)
5) COC(=O)Nc1nc2cc(Oc3ccc4nc(NC(=O)OC)[nH]c4c3)ccc2[nH]1 = 791 nM (active)

====

Test system: SN12C
experiment_summary: NCI tumour cell line growth inhibition, 48 h
The source made the active and inactive calls. Cut-off read from the data, not from the text of the source: active = GI50 up to about 1.1 µM and inactive = higher. Non-standard residues stand in square brackets, D forms with d. Residues, ends and D or L forms follow the SMILES beside them. ξ: configuration not given here. *: point of attachment. ξF = NC(Cc1ccccc1)C(=O)O; Cbz = O=C(OCc1ccccc1)*
readout_name: GI50

1. CSCCC(NOC(=O)Cc1ccccc1)P(=O)(O)c1ccccc1 (stereo not given) = > 100 µM (inactive)
2. CCN(CC)CCCC(C)Nc1ccnc2cc(Cl)ccc12 (stereo not given) [CHLOROQUINE PHOSPHATE] = 34.9 µM (inactive)
3. COc1cc(S(=O)(=O)Nc2nc(-c3ccc(N4C(=O)C(CC(=O)O)SC4c4ccccc4O)cc3)cs2)ccc1Cl (stereo not given) = > 100 µM (inactive)
4. O=C1c2ccccc2-c2c1c1ccccc1c(=O)n2Cc1ccco1 = > 100 µM (inactive)
5. CCn1c(O)c(C(=O)Nc2cccs2)c(=O)n(CC)c1=S = 20 µM (inactive)
6. Clc1ccc(C2SCc3nc4ccccc4n32)cc1 (stereo not given) = 17.1 µM (inactive)
7. COc1cc2c(c3c1C=CCO3)C(=O)c1ccccc1C2=O = 43.9 µM (inactive)
8. C=C1c2nc3ccccc3n2C=C(c2ccc(C)cc2)N1c1ccc(C)cc1 = > 100 µM (inactive)
9. CN(C)/C=N/S(=O)(=O)c1nn2c(C=O)c(-c3ccc(Cl)cc3)nc2s1 = 2.23 µM (inactive)
10. CCOC(=O)CNC(=O)C(Cc1ccccc1)NC(=O)OCc1ccccc1 (stereo not given) (Cbz-[ξF]-Gly-OEt) = > 100 µM (inactive)

====

Tested on: NCI-H522
experiment_summary: NCI tumour cell line growth inhibition, 48 h
The source made the active and inactive calls. No stated cut-off is given here; in the data, active = GI50 up to about 1.1 µM and inactive = higher.
Outcome codes: active, inactive

1) COC(=O)c1cc2c(cc1Cl)Sc1nnc(Nc3ccccc3)n1S2(=O)=O = inactive
2) COC(=O)[C@H]1[C@H](OC(=O)[C@@H](OC)c2ccccc2)ON2CC[C@@H](OC(=O)c3ccccc3)[C@H]12 = inactive
3) CNc1cc([N+](=O)[O-])ccc1C(=O)N1CCC[C@H]1CO = inactive
4) O=C(NCCCCCCNC(=O)n1cc(F)c(=O)[nH]c1=O)NCCCOCCOCCOCCOCCOCCOCCOCCOCCOCCOCCOCCOCCOCCOCCOCCOCCOCCOCCOCCOCCOCCCNC(=O)C(O)C(O)C(O)C(O)CO (centres undefined) = inactive
5) CC(=O)[C@@]1(O)CC[C@H]2[C@@H]3C[C@H](C)C4=CC(=O)C=C[C@]4(C)[C@@]3(F)[C@@H](O)C[C@@]21C = inactive
6) O=c1cc(-c2ccc(O)cc2)n(C2CC2)c2ccccc12 = inactive
7) CCc1cccc(C)c1NC(=O)CCc1nnc2s/c(=C\c3cccc4ccccc34)c(=O)n12 = inactive
8) COc1nc(C#CC2CCCCC2)nc(OC)n1 = inactive
9) CCO[C@H]1C[C@@H](c2ccccc2)[C@]2(C)C[C@H](C(=O)OC)ON2O1 = inactive
10) O=C(NC(CS)C(=O)O)c1cccc2c(=O)c3ccccc3[nH]c12 (centres undefined) = inactive
11) C1CN(c2nnc(N3CCC3)nn2)C1 = inactive
12) CC(C)(O)CCc1ccc(O)c2c(=O)c3c(O)c4c(cc3oc12)O[C@H]1OC=C[C@@]41O = inactive
13) CCC/N=C/c1c(O)c(O)c(C(C)C)c2cc(C)c(-c3c(C)cc4c(C(C)C)c(O)c(O)c(/C=N/CCC)c4c3O)c(O)c12 = inactive
14) CSCCC(NOC(=O)Cc1ccccc1)P(=O)(O)c1ccccc1 (centres undefined) = inactive
15) c1ccc2c(c1)c(N1CCCCC1)cc1nc3c(cc(N4CCCCC4)c4ccccc43)nc12 = inactive
16) [O-][n+]1onc2c3nn(-c4ccccc4)nc3ccc21 = inactive
17) COC(=O)c1cc(OCc2cc(OCc3ccc(Br)cc3)cc(OCc3ccc(Br)cc3)c2)cc(OCc2cc(OCc3ccc(Br)cc3)cc(OCc3ccc(Br)cc3)c2)c1 = inactive
18) NC(=O)NC12CC3CC(CC(F)(C3)C1)C2 = inactive
19) O=[N+]([O-])C(=C(Nc1ccccc1)Nc1ccccc1)/C(Cl)=C(\Cl)Br = inactive
20) CCOC(=O)c1nc2ccc(C(F)(F)F)cc2nc1Nc1ccc(OC)cc1 = inactive
21) CN(C)c1ccc(C2CC(c3ccc4ccccc4c3O)=NN2)cc1 (centres undefined) = inactive
22) COc1cc2c(oc(=O)c3cc4cc([Si](C)(C)C)oc4c(OC)c32)c2cccc(O)c12 = inactive
23) Cc1cc(O)c2c3c(ccc2c1)C(=O)c1c(O)cccc1C3=O = active
24) CCCCCCCCCCCCCCCCNc1nc(=O)n(C2CC(O)C(CO)O2)cc1F (centres undefined) = inactive
25) O=C(CCN1CCCC1)CC(c1ccccc1)c1c(O)c2ccccc2oc1=O (centres undefined) = inactive
26) COc1cc2c(cc1O)NC(=O)[C@@H]1C[C@@H](O)CN1C2=O = inactive
27) NC(=O)C1C(=O)Oc2cccnc21 (centres undefined) = inactive
28) C/C=C(/C)C(=O)O[C@@H]1CCN2CC[C@H](COC(=O)/C(=C/C)CO)C12 (some centres undefined) = inactive
29) COc1ccc(/C(Cl)=C(\C=O)c2ccc([N+](=O)[O-])cc2)cc1OC = inactive
30) CC(C)(CO)NC(=O)c1cccs1 = inactive
31) Cc1ccc(C[P+]2(c3ccccc3)CCCCC2)cc1.[O-][Cl+3]([O-])([O-])[O-] = inactive
32) Cc1ccc(-n2cc(-c3ccc(Cl)cc3)c3c(NNC(=S)NCc4ccccc4)ncnc32)cc1 = inactive
33) CC1CC(C)CC(NC2=NCCO2)C1 (centres undefined) = inactive
34) FC1OC2OC1C(OCc1ccccc1)C(OCc1ccccc1)C2OCc1ccccc1 (centres undefined) = inactive
35) Cc1ccc(/C=C2\CN(C)CC3C2=NN(c2ccccc2)C3c2ccc(C)cc2)cc1 (centres undefined) = inactive
36) Oc1cc(O)c2c(c1)OC(c1ccc(O)c(O)c1)C(OC1(c3cc(O)c(O)c(O)c3)Oc3cc(O)cc(O)c3C(O)C1O)C2 (centres undefined) = inactive
37) C1CNCCNCCNCCN1 = inactive
38) CCOC(=O)/C=C(/N=P(c1ccccc1)(c1ccccc1)c1ccccc1)C(F)(F)F = inactive
39) Cc1ccc(N2C(=O)CS/C2=C(\C#N)c2nc3ccccc3[nH]2)cc1 = inactive
